target: SARS-COV-2 3CLpro/Mpro protease (Severe acute respiratory syndrome coronavirus 2 (2019-nCoV) (SARS-CoV-2), UniProt P0DTD1); experiment: Inhibitory effect on SARS-COV-2 3CLpro/Mpro protease by fluorescence resonance energy transfer; format: biochemical; details: activity intervals A-D, read-out: IC50 (nM), Inhibition on SARS-CoV-2 3CLpro/Mpro protease

COMPOUND	IC50
CNc1cncc(C(=O)N2CCC[C@@H](Nc3c(C(=O)N4CCc5ccsc5C4)cc(Br)cc3[N+](=O)[O-])C2)c1	10 to 50 nM
CNc1cncc(C(=O)N2C[C@H](Nc3c(C(=O)N4C[C@@H](C)O[C@@H](C)C4)cc(Br)cc3[N+](=O)[O-])C[C@H]2C(=O)NC2CC2)c1	50 to 100 nM
O=C(N[C@H]1CCOC[C@H]1Nc1c(C(=O)N2CCC(F)(F)CC2)cc(Br)cc1[N+](=O)[O-])c1cncc2cc(Cl)ccc12	10 to 50 nM
CNc1cncc(C(=O)N2CCC[C@@H](Nc3c(C(=O)N4CCO[C@H](C(F)F)C4)cc(Br)cc3[N+](=O)[O-])C2)c1	10 to 50 nM
O=C(c1cncc(Br)c1)N1CCC[C@@H](Nc2c(C(=O)N3CC4CC4C3)cc(Br)cc2[N+](=O)[O-])C1 (stereo partly shown)	< 10 nM
CNc1cncc(C(=O)N2C[C@H](Nc3c(C(=O)N4C[C@@H](C)O[C@@H](C)C4)cc(Br)cc3[N+](=O)[O-])C[C@H]2C(=O)Nc2ccnc(Cl)n2)c1	10 to 50 nM
C[C@@H]1CN(C(=O)c2cc(Br)cc([N+](=O)[O-])c2N[C@H]2CN(C(=O)c3cncc(Br)c3)CC2(F)F)C[C@H](C)O1	10 to 50 nM
Cc1cc(C(=O)N2CCC[C@@H](Nc3c(C(=O)N4CCOCC4)cc(Br)cc3[N+](=O)[O-])C2)cc(=O)[nH]1	10 to 50 nM
CNc1cncc(C(=O)N2C[C@H](Nc3c(C(=O)N4C[C@@H](C)O[C@@H](C)C4)cc(Br)cc3[N+](=O)[O-])C[C@H]2C(N)=O)c1	10 to 50 nM
C[C@@H]1CN(C(=O)c2cc(Br)cc(C(F)(F)F)c2N[C@@H]2CCCC[C@@H]2NC(=O)c2cncc3cc(Cl)ccc23)C[C@H](C)O1	10 to 50 nM
CNc1cncc(C(=O)N2CCC[C@@H](Nc3c(C(=O)N4CC(N)CC(F)(F)C4)cc(Br)cc3[N+](=O)[O-])C2)c1 (stereo partly shown)	10 to 50 nM
Cc1cc(C(=O)N2CC(Nc3c(C(=O)N4CCN(C5CCCCC5)CC4)cc(Br)cc3[N+](=O)[O-])C(F)(F)C2)cc(=O)[nH]1 (stereo not shown)	10 to 50 nM
Cc1cc(C(=O)N2C[C@H](Nc3c(C(=O)NCC(F)(F)F)cc(Br)cc3[N+](=O)[O-])C3(CC3)C2)cc(=O)[nH]1	10 to 50 nM

====

target: SARS-COV-2 3CLpro/Mpro protease (Severe acute respiratory syndrome coronavirus 2 (2019-nCoV) (SARS-CoV-2), UniProt P0DTD1); assay: Inhibitory effect on SARS-COV-2 3CLpro/Mpro protease by fluorescence resonance energy transfer; type: biochemical; conditions: activity intervals A-D, read-out: IC50 (nM), Inhibition on SARS-CoV-2 3CLpro/Mpro protease
MEASUREMENT_TYPE: IC50

COMPOUND	MEASUREMENT_TYPE	MEASURED_RESULT
CNc1cncc(C(=O)N2CCC[C@@H](Nc3c(C(=O)N4CCN(CC(F)(F)F)CC4)cc(Br)cc3[N+](=O)[O-])C2)c1	IC50	10 to 50 nM
CNc1cncc(C(=O)N2CCC[C@@H](Nc3c(C(=O)N4CCC5(CCOCC5)CC4)cc(Br)cc3[N+](=O)[O-])C2)c1	IC50	10 to 50 nM
CNc1cncc(C(=O)N2C[C@H](Nc3c(C(=O)N4C[C@@H](C)O[C@@H](C)C4)cc(Br)cc3[N+](=O)[O-])C[C@H]2C(=O)Nc2cnn(C)c2)c1	IC50	50 to 100 nM
CNc1cncc(C(=O)N2CC(Nc3c(C(=O)N4CCC5(CCCCC5)CC4)cc(Br)cc3[N+](=O)[O-])C(C)(C)C2)c1 (stereo not drawn)	IC50	10 to 50 nM
CNc1cncc(C(=O)N2CCC[C@@H](Nc3c(C(=O)N4C[C@@H](C)N(CCOC)[C@@H](C)C4)cc(Br)cc3[N+](=O)[O-])C2)c1	IC50	50 to 100 nM
O=C(c1cncc(Br)c1)N1CCC[C@@H](Nc2c(C(=O)N3CCCCC3)cc(Br)cc2C(F)(F)F)C1	IC50	10 to 50 nM
